- Target: T1, ECF33_423
- T1 chain: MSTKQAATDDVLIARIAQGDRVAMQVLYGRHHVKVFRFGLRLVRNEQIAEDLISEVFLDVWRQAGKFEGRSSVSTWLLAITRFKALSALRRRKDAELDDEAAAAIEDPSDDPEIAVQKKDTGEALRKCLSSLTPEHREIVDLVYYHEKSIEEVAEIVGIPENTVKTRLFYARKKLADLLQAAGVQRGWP
Attribute Measured: fold repression
No unit in the answer, only the number.

Item: AS14_1324 (protein) MSGSRPEPEGHLAEQHLGDRLSALVDGELGHDARERVLAHVATCPKCKAEVDAQRRLKNVFAEAAPPAPSESFLARLQGLPGGGDSDGGGSPFSGLPGGFGASAASGVFGPRRDERFEFDYVPAGSHTPVLPSATSGRGFRIHEVGRHESDRSASRGLRFAFAAAGAVSLAAIALGGVTLGTPDTTTEARGSGSGSNVTPLRTPGSAAATGSESQRRRTAGPLLGQGQRALGDLPVASTTASAPLLPGMPAPAGGDARQQAVRALTTPVTAGAAAMSPLIRPLEAVPPLSLSSWSAAPEVRPPGLLAAPDPAPSPYPAASPAASSSPLR | fold repression: 4.28
